These measurements were taken from patent US20260217701A1.

# assayName: Dog PK study #1 (Compound A IV and PO, propylene glycol formulation)
# Type: in vivo, beagle dogs
# experimentalParameters: beagle, dog, plasma, iv, 1 mg/kg, IV 1 mg/kg, 24 h; mean
outcomeMeasure: concentration at 24 h (ng/mL)
Write down the numeric answer in ng/mL and omit the unit.

// sample Cn1cc(-c2ccccc2)c(-c2cn(C)c(=O)c3[nH]c(-c4cnn(C(F)(F)F)c4)cc23)cc1=O , its concentration at 24 h was 38.7

----------
# assayName: Rat PK study #1 (Compound A PO, methylcellulose vs propylene glycol formulation)
# Format: in vivo, Lewis rats
# experimentalParameters: male, Lewis, rat, plasma, po, 10 mg/kg, Lewis rats, PO 10 mg/kg, 1% methylcellulose formulation, 0.083 h, individual animals
outcomeMeasure: concentration at 0.083 h (ng/mL)
Write down the numeric answer in ng/mL and omit the unit.

// sample Cn1cc(-c2ccccc2)c(-c2cn(C)c(=O)c3[nH]c(-c4cnn(C(F)(F)F)c4)cc23)cc1=O [Compound A] , its concentration at 0.083 h was 0

----------
# assayName: Dog PK study #3 (Compound A PO once daily 5 days, 5/10/20 mg/kg; PK, body weight, hematology)
# Format: in vivo, beagle dogs
# experimentalParameters: male, beagle, dog, plasma, po, 5 mg/kg, Day 5, 5 mg/kg dose PO; mean; read-out: Cmax
outcomeMeasure: Cmax (ng/mL)
Write down the numeric answer in ng/mL and omit the unit.

// sample Cn1cc(-c2ccccc2)c(-c2cn(C)c(=O)c3[nH]c(-c4cnn(C(F)(F)F)c4)cc23)cc1=O , its Cmax was 1160

----------
# assayName: CIA study: pharmacokinetics / plasma concentration after oral administration
# Format: in vivo, Lewis rats
# experimentalParameters: Lewis, rat, plasma, oral, 10 mg/kg, Day 21, CIA rats, 10 mg/kg; read-out: Plasma Concentration
outcomeMeasure: concentration at 21 day
// return the numeric value with its unit appended

// sample Cn1cc(-c2ccccc2)c(-c2cn(C)c(=O)c3[nH]c(-c4cnn(C(F)(F)F)c4)cc23)cc1=O , its concentration at 21 day was 0.232 µg/mL

----------
# assayName: Rat PK study #4 (Compound A PO 0.2 and 1.0 mg/kg, propylene glycol formulation)
# Assay type: in vivo, Lewis rats
# experimentalParameters: male, Lewis, rat, plasma, po, 1 mg/kg, Lewis rats, PO 1 mg/kg, propylene glycol-based formulation, 24 h, mean of 3 animals
outcomeMeasure: concentration at 24 h

// sample Cn1cc(-c2ccccc2)c(-c2cn(C)c(=O)c3[nH]c(-c4cnn(C(F)(F)F)c4)cc23)cc1=O , its concentration at 24 h was 7.9 ng/mL

----------
# assayName: Dog PK study #3 (Compound A PO once daily 5 days, 5/10/20 mg/kg; PK, body weight, hematology)
# Format: in vivo, beagle dogs
# experimentalParameters: male, beagle, dog, plasma, po, 20 mg/kg, Day 1, 20 mg/kg dose PO; mean; read-out: Cmax
outcomeMeasure: Cmax (ng/mL)
Write down the numeric answer in ng/mL and omit the unit.

// sample Cn1cc(-c2ccccc2)c(-c2cn(C)c(=O)c3[nH]c(-c4cnn(C(F)(F)F)c4)cc23)cc1=O , its Cmax was 5160

----------
# assayName: Dog PK study #4 (Compound A PO daily 14 days, 1/3/10 mg/kg; toxicokinetics, platelet counts)
# Assay type: in vivo, beagle dogs
# experimentalParameters: both sexes, beagle, dog, plasma, oral; after daily administration for 14 days, 1 mg/kg, Pooled Mean, 2 h
outcomeMeasure: concentration at 2 h (ng/mL)
Write down the numeric answer in ng/mL and omit the unit.

// sample Cn1cc(-c2ccccc2)c(-c2cn(C)c(=O)c3[nH]c(-c4cnn(C(F)(F)F)c4)cc23)cc1=O , its concentration at 2 h was 65.5
